The origin of these recorded values is PubChem BioAssay AID588382.

assay: qHTS of small molecules that selectively kill Giardia lamblia: Hit Validation in HepG2 cytotox; conditions: cell viability; HepG2 cytotoxicity; series mostly up to 38.3 µM
Hit rate of the full screen: of about 1,300 compounds, about 150 (12%) were called active. Not shown: some 30% with an inconclusive outcome. The call rests on the fitted dose curve; in most records, active means well fitted cell-killing curve with a large enough effect; inconclusive means small, poorly fitted or top-dose-only effect, or effect the other way; inactive means flat fitted curve, though single readings scatter. The full list was thinned out, with actives kept by preference.
Can you answer with just one of these options? True = active, False = inactive

# count of solved cases: 5
O=C1C2C3C=CC(C3)C2C(=O)N1Nc1ccc([N+](=O)[O-])cc1[N+](=O)[O-] (stereo unspecified)	False
O=C(CSc1nnc(NC(=O)c2ccccc2)s1)NCc1ccco1	True
CN(C)c1ccc2nsnc2c1[N+](=O)[O-]	False
Cc1ccc([C@@H]2CC=C(C(=O)O)CN2S(=O)(=O)c2ccc(C)cc2)cc1	False
O=C(Nc1nnc(SCC(=O)N2CCOCC2)s1)c1ccccc1	True

Consider the additional compound presented here.
Fill in: this test's call for O=C(CSc1nnc(NC(=O)c2c(F)cccc2F)s1)Nc1ccc(F)cc1 is ___
False

---

assay: qHTS of small molecules that selectively kill Giardia lamblia: Hit Validation in HepG2 cytotox; conditions: cell viability; HepG2 cytotoxicity; series mostly up to 38.3 µM
About 150 (12%) of roughly 1,300 compounds were called active. Roughly 30% stayed inconclusive and do not appear here. The call rests on the fitted dose curve; in most records, active means well fitted cell-killing curve with a large enough effect; inconclusive means small, poorly fitted or top-dose-only effect, or effect the other way; inactive means flat fitted curve, though single readings scatter. The sample as a whole holds a higher share of actives than the screen did.
Can you answer with just one of these options? active, inactive

# count of solved cases: 5
O=C(Nc1nnc(C2=COCCO2)o1)c1cccc(F)c1	inactive
CN(C)C(=O)COC(=O)c1cccc(S(=O)(=O)N2CC3(C)CC2CC(C)(C)C3)c1 (stereo not given)	inactive
O=S(=O)(Nc1cc(Sc2cccc3cccnc23)c(O)c2ccccc12)c1ccc(F)cc1	active
C/C(=N/NC(=O)C(O)(c1ccccc1)c1ccccc1)c1ccc([N+](=O)[O-])o1	inactive
CC(C)CC(=O)NC(=S)NNC(=O)c1ccc([N+](=O)[O-])cc1	inactive

Fill in: this test's call for Cc1cc(C)cc(N=c2c([N+](=O)[O-])nn(-c3cccc(Cl)c3)n2O)c1 is ___
inactive

Fill in: this test's call for Cc1onc(-c2ccccc2)c1C(=O)N(Cc1ccccc1)C(C)C is ___
inactive

Fill in: this test's call for COc1nn(C(C)C(=O)N2N=C(C(F)F)CC2(O)C(F)F)cc1[N+](=O)[O-] (stereo not given) is ___
inactive

Fill in: this test's call for N#C/C(=C\c1ccc(O)c([N+](=O)[O-])c1)C(=O)NCc1ccccc1 is ___
inactive

Fill in: this test's call for CN(C(=O)c1ccc(N2CCCCC2)c([N+](=O)[O-])c1)C1CCS(=O)(=O)C1 (stereo not given) is ___
inactive

---

Assay: qHTS of small molecules that selectively kill Giardia lamblia: Hit Validation in HepG2 cytotox;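 further: compound exposure lasted overnight at 37 deg C; nearly all actives have a fitted effect of over 55% in size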
Conditions: cell viability; HepG2 cytotoxicity; series mostly up to 38.3 µM
Description: Giardia lamblia is a human pathogen afflicting impoverished nations, and the most common cause of outbreaks of diarrhea in the United States. Giardia has been classified by the CDC as a category B bioterrorism organism. […] 4 uL of HepG2 cells ae dispensed into white 1536-well plates. […] 2 uL of ATPLite is added and the plates are incubated for 15 min at room temperature before they are read on the ViewLux for luminiescence.
Among all 1,300 compounds or so, about 150 (12%) were called active. Roughly 30% stayed inconclusive and do not appear here. Calls follow the shape of the dose curve; as a rule, active = well fitted cell-killing curve with a large enough effect; inconclusive = small, poorly fitted or top-dose-only effect, or effect the other way; inactive = flat fitted curve, though single readings scatter. Shown is part of a subset that was picked to be rich in actives.
Can you answer with just one of these options? y = active, n = inactive

Cn1nc(N)c2c(-c3ccccc3)c(C#N)c(N)nc21	n

Fill in: this test's call for COc1cc(/C=C2\SC(=O)N(Cc3ccc(F)cc3)C2=O)cc([N+](=O)[O-])c1O is ___
n

Fill in: this test's call for COc1ccccc1-n1cc2c([N+](=O)[O-])cc([N+](=O)[O-])cc2n1 is ___
n

Fill in: this test's call for C=C1C=C(C)n2ncc(C(=O)Nc3ccc(C)cn3)c2N1 is ___
n

Fill in: this test's call for Cc1ncc(CO)c(/C=N/NC(=O)c2cc3c(s2)CCCC3)c1O is ___
y

Fill in: this test's call for O=[N+]([O-])c1ccc(CSc2nnc(-c3cnccn3)o2)cc1 is ___
n

Fill in: this test's call for Cc1ccc(S(=O)(=O)N2[C@@H](c3ccc(F)cc3)C(C(=O)O)=CC[C@H]2c2cccs2)cc1 is ___
n

Fill in: this test's call for Cc1ncc([N+](=O)[O-])n1CCOC(=O)C12CC3CC(CC(C3)C1)C2 is ___
n

---

Experiment: qHTS of small molecules that selectively kill Giardia lamblia: Hit Validation in HepG2 cytotox;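 further: compound exposure lasted overnight at 37 deg C; nearly all actives have a fitted effect of over 55% in size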
Conditions: cell viability; HepG2 cytotoxicity; series mostly up to 38.3 µM
Procedure: Giardia lamblia is a human pathogen afflicting impoverished nations, and the most common cause of outbreaks of diarrhea in the United States. Giardia has been classified by the CDC as a category B bioterrorism organism. […] 4 uL of HepG2 cells ae dispensed into white 1536-well plates. […] 2 uL of ATPLite is added and the plates are incubated for 15 min at room temperature before they are read on the ViewLux for luminiescence.
Among all 1,300 compounds or so, about 150 (12%) were called active. Roughly 30% stayed inconclusive and do not appear here. The call rests on the fitted dose curve; in most records, active means well fitted cell-killing curve with a large enough effect; inconclusive means small, poorly fitted or top-dose-only effect, or effect the other way; inactive means flat fitted curve, though single readings scatter. Only a selection was taken, and actives are over-represented in it overall.
Can you answer with just one of these options? class 1 for active, class 0 for inactive

Fill in: this test's call for COc1ccc(S(=O)(=O)N2CCOCC2)cc1NC(=O)COc1cccnc1[N+](=O)[O-] is ___
class 0

Fill in: this test's call for COc1ccc(S(=O)(=O)N2CCCCC2)cc1NC(=O)c1ccc([N+](=O)[O-])o1 is ___
class 1

Fill in: this test's call for O=c1c2c(-c3ccccc3)csc2ncn1/N=C/c1ccc(O)c([N+](=O)[O-])c1 is ___
class 0

Fill in: this test's call for NC(=O)c1oc2ccccc2c1NC(=O)c1ccc([N+](=O)[O-])o1 is ___
class 1

Fill in: this test's call for CN1C(=O)/C(=C/c2ccc(O)c([N+](=O)[O-])c2)N(C)C1=S is ___
class 0

---

assay: qHTS of small molecules that selectively kill Giardia lamblia: Hit Validation in HepG2 cytotox; details: cell viability; HepG2 cytotoxicity; series mostly up to 38.3 µM;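 further: compound exposure lasted overnight at 37 deg C; nearly all actives have a fitted effect of over 55% in size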
About 150 (12%) of roughly 1,300 compounds were called active. Not shown: some 30% with an inconclusive outcome. Calls come from the whole dose curve; as a rule, active = well fitted cell-killing curve with a large enough effect; inconclusive = small, poorly fitted or top-dose-only effect, or effect the other way; inactive = flat fitted curve, though single readings scatter. The list comes from a sample in which actives are over-represented; it also holds close analogues and randomly drawn compounds.
Can you answer with just one of these options? true (1) = active, false (0) = inactive

# count of solved cases: 5
Cc1cc(N/N=C/c2ccc([N+](=O)[O-])o2)nc2ccccc12	false (0)
O=C(N/N=C/c1ccc([N+](=O)[O-])o1)c1cc(-c2ccc(-c3ccccc3)cc2)nc2ccccc12	true (1)
CCOC(=O)N/N=C\c1ccc([N+](=O)[O-])o1	false (0)
O=[N+]([O-])c1nn(-c2ccccc2)[n+]([O-])c1N1CCN(c2ccccc2)CC1	false (0)
COc1ccc(C(CNC(=O)c2oc3cc(Br)ccc3c2C)N2CCCCC2)cc1 (stereo not drawn)	false (0)

Consider the additional molecule presented here.
Fill in: this test's call for COc1cc(/C=C/c2ccc3cccc(OC)c3n2)c(O)c([N+](=O)[O-])c1 is ___
false (0)

---

assay: qHTS of small molecules that selectively kill Giardia lamblia: Hit Validation in HepG2 cytotox; conditions: cell viability; HepG2 cytotoxicity; series mostly up to 38.3 µM;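 further: compound exposure lasted overnight at 37 deg C; nearly all actives have a fitted effect of over 55% in size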
Hit rate of the full screen: of about 1,300 compounds, about 150 (12%) were called active. Another 30% or so got no clear call; they are omitted. Calls come from the whole dose curve; as a rule, active = well fitted cell-killing curve with a large enough effect; inconclusive = small, poorly fitted or top-dose-only effect, or effect the other way; inactive = flat fitted curve, though single readings scatter. Many of the other results were omitted from the sample, so actives are more common in it than they were.
Can you answer with just one of these options? active, inactive

# count of solved cases: 5
O=C1N=C(N2CCCCC2)S/C1=C\c1ccc(Br)cc1	inactive
COc1ccc2c(c1)C1OCCC1C(c1ccco1)N2 (stereo not drawn)	active
CN(C(=O)c1ccc(F)c(S(=O)(=O)N2CCOCC2)c1)C1CCCCC1	inactive
Cc1oc2c(c1C(=O)N1CCOCC1)C(=O)c1ccccc1C2=O	active
O=[N+]([O-])c1ccc(/C=C/c2ccnc3ccccc23)c([N+](=O)[O-])c1	inactive

Fill in: this test's call for Cc1ccc(Nc2ccc([N+](=O)[O-])nc2[N+](=O)[O-])cc1 is ___
inactive

Fill in: this test's call for O=C(NN1C(=O)c2ccccc2NC1c1ccc([N+](=O)[O-])o1)c1ccccc1 (stereo not drawn) is ___
inactive

Fill in: this test's call for CC(=O)O[C@@H]1[C@@H](OC(C)=O)[C@H](n2ccc3cc([N+](=O)[O-])ccc32)OC[C@@H]1OC(C)=O is ___
inactive

Fill in: this test's call for O=C(NCC1CCCO1)c1ccc([N+](=O)[O-])o1 (stereo not drawn) is ___
inactive

Fill in: this test's call for Cn1c([N+](=O)[O-])cnc1N1CCN(c2nncs2)C1=O is ___
inactive

Fill in: this test's call for O=[N+]([O-])c1[nH]cnc1/C=C/c1ccccc1 is ___
inactive

Fill in: this test's call for CC(=O)NC(Cc1cccc(F)c1)C(=O)NC1CCN(c2ncccc2[N+](=O)[O-])CC1 (stereo not drawn) is ___
inactive

Fill in: this test's call for Cc1c(Br)c([N+](=O)[O-])nn1C(C)C(=O)Nc1ccc2c(c1)OCO2 (stereo not drawn) is ___
inactive
